- SYSTEM_NAME: Sodium/glucose cotransporter 2 (Homo sapiens) (UniProt P31639)
- Sequence (whole entry): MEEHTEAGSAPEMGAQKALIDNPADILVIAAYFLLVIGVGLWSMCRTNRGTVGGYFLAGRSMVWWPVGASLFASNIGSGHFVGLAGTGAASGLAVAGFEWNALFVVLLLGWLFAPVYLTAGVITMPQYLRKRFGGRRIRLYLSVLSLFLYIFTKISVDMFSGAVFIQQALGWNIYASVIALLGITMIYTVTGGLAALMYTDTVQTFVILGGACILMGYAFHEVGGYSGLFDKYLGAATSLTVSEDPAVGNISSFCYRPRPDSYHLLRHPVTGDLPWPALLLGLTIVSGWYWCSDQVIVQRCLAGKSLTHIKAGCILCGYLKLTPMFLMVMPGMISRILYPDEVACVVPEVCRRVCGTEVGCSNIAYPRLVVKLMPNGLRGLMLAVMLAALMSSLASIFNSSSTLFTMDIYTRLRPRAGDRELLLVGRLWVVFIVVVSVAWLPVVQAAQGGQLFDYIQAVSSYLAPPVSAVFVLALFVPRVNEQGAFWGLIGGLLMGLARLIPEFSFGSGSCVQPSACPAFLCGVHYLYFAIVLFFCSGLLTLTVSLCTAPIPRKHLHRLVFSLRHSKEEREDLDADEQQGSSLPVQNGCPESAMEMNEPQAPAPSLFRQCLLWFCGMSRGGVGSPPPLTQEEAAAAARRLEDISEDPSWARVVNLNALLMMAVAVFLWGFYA
- ASSAY_METHOD_TEXT: Inhibition of human SGLT2 expressed in COS1 cells assessed as [14C]methyl-alpha-D-glucopyranoside uptake at 50 uM
- Type: cell-based
- PARTICULARS: COS-1
MEASURED_PARAMETER: inhibition (%)

compound=C=C(C)[C@H](CC=C(C)C)Cc1c(O)cc(OC)c(C(=O)/C=C/c2ccc(O)cc2O)c1O value_observed=100
compound=C=C(C)[C@H](CCC(C)(C)O)Cc1c(O)cc(OC)c2c1O[C@H](c1ccc(O)cc1O)[C@H](O)C2=O value_observed=43.7
compound=COc1ccc(-c2coc3cc(O)ccc3c2=O)cc1 value_observed=75.4

(A) C=C(C)C(CC=C(C)C)Cc1c(O)cc(OC)c2c1O[C@H](c1ccc(O)cc1O)CC2=O (stereo partly drawn)
(B) Oc1ccc2c(c1)OC[C@H]1c3cc4c(cc3O[C@@H]21)OCO4
For the pair A and B , which entry has the numerically smaller recorded inhibition? Mark your answer with the label of the selected entry.
B
(B: 66.5%, A: 99.7%)
